Reported LC50 by item:
- Test system: Hep3B hepatocellular carcinoma cell line
- Assay: MTS cell viability assay (NCI-60 methodology), GI50/LC50, Hep3B
- Assay type: cell-based
- Condition: Homo sapiens, 48 h, Hep3B cells, 2 days incubation with compound
Respond numerically; units are nM and should not be typed.

Below, 3 compounds whose answers are already recorded.
* CCOc1cc(OCC)c(-c2nnc(NC(=O)Cc3ccc4nc(N)sc4c3)s2)cn1 | 3680
* CCCOc1ccc(-c2nc(NC(=O)c3ccc([N+](=O)[O-])s3)sc2Oc2ccc(C(F)(F)F)cc2Cl)cc1 | 1710
* CC(C)(C)c1ccc(-c2nc(NC(=O)c3ccc([N+](=O)[O-])s3)sc2Oc2ccccc2C(F)(F)F)cc1 | 1310

Req: Recall and state the measured LC50 for Cc1ccc(-c2nc(NC(=O)c3ccc([N+](=O)[O-])s3)sc2-c2cc(C(F)(F)F)cc(C(F)(F)F)c2)cc1 .
Resp: 1080

---

- Test system: Hep3B hepatocellular carcinoma cell line
- Assay: MTS cell viability assay (NCI-60 methodology), GI50/LC50, Hep3B
- Format: cell-based
- Condition: Homo sapiens, 48 h, Hep3B cells, 2 days incubation with compound
Reported LC50 by item:
Respond numerically; units are nM and should not be typed.

• Nc1nc2ccc(CC(=O)Nc3nc(-c4ccc(Br)cc4)c(-c4ccc(Br)cc4)s3)cc2s1 = 1290

Req: Recall and state the measured LC50 for CCOCOc1cc(OCC)ccc1-c1nnc(NC(=O)Cc2ccc3nc(N)sc3c2)s1 .
Resp: 490

Req: Recall and state the measured LC50 for CCCOc1ccc(-c2nc(NC(=O)c3ccc([N+](=O)[O-])s3)sc2Oc2cccc(F)c2)cc1 .
Resp: 2070

Req: Recall and state the measured LC50 for CCOc1ccc(-c2nc(NC(=O)c3ccc([N+](=O)[O-])s3)sc2Cc2ccccc2)cc1 .
Resp: 7530

---

- Test system: NCI-H460 human lung cancer cell line
- Assay: MTS cell viability assay (NCI-60 methodology), GI50/LC50, NCI-H460
- Format: cell-based
- Condition: 48 h, NCI-H460 cells, 2 days incubation with compound
Parameter Measured: LC50 (concentration giving 50% net cell loss versus time zero, NCI-60 definition) (nM)
Respond numerically; units are nM and should not be typed.

Below, 3 compounds whose answers are already recorded.
* CC(C)Oc1ccc(-c2nc(NC(=O)c3ccc([N+](=O)[O-])s3)sc2Oc2ccccc2)cc1 | 5310
* CCCCOc1cc(OCC)ccc1-c1nnc(NC(=O)Cc2ccc3nc(N)sc3c2)s1 | 580
* O=C(Nc1nc(-c2ccc(Br)cc2)c(Oc2cccc(C(F)(F)F)c2)s1)c1ccc([N+](=O)[O-])s1 | 3980

Req: Recall and state the measured LC50 (concentration giving 50% net cell loss versus time zero, NCI-60 definition) for CCOc1ccc(-c2nc(NC(=O)c3ccc([N+](=O)[O-])s3)sc2Oc2ccccc2)cc1 .
Resp: 3990

Req: Recall and state the measured LC50 (concentration giving 50% net cell loss versus time zero, NCI-60 definition) for Cc1ccc(-c2nc(NC(=O)c3ccc([N+](=O)[O-])s3)sc2-c2cc(C(F)(F)F)cc(C(F)(F)F)c2)cc1 .
Resp: 1630

Req: Recall and state the measured LC50 (concentration giving 50% net cell loss versus time zero, NCI-60 definition) for CCCCCCOc1ccc(-c2nc(NC(=O)c3ccc([N+](=O)[O-])s3)sc2Oc2ccccc2)cc1 .
Resp: 1350

Req: Recall and state the measured LC50 (concentration giving 50% net cell loss versus time zero, NCI-60 definition) for CC(C)(C)c1ccc(-c2nc(NC(=O)c3ccc([N+](=O)[O-])s3)sc2Oc2ccccc2C(F)(F)F)cc1 .
Resp: 1110

---

- System: Hep3B hepatocellular carcinoma cell line
- Assay: MTS cell viability assay (NCI-60 methodology), GI50/LC50, Hep3B
- Format: cell-based
- Condition: Homo sapiens, 48 h, Hep3B cells, 2 days incubation with compound
Reported LC50 by item:
Respond numerically; units are nM and should not be typed.

Below, 6 compounds whose answers are already recorded.
• CC(C)(C)c1ccc(-c2nc(NC(=O)c3ccc([N+](=O)[O-])s3)sc2Oc2ccccc2)cc1 [Compound 5-14] = 7350
• CCOc1cnccc1-c1nnc(NC(=O)Cc2ccc3nc(N)sc3c2)s1 [Compound 1-25] = 500
• CCCCOc1ccc(Oc2sc(NC(=O)c3ccc([N+](=O)[O-])s3)nc2-c2ccc(F)cc2)cc1 [Compound 5-66] = 760
• O=C(Nc1nc(-c2ccc(OC(F)(F)F)cc2)c(Oc2ccccc2F)s1)c1ccc([N+](=O)[O-])s1 [Compound 5-85] = 2540
• CC(C)(C)c1ccc(-c2nc(NC(=O)c3ccc([N+](=O)[O-])s3)sc2-c2ccc(Br)cc2)cc1 [Compound 6-53] = 620
• CC(C)(C)c1ccc(-c2nc(NC(=O)c3ccc([N+](=O)[O-])s3)sc2Oc2ccc(F)cc2)cc1 [Compound 5-20] = 2630

Attention now shifts to the item below.
Req: Recall and state the measured LC50 for CCCCOc1ccc(-c2nc(NC(=O)c3ccc([N+](=O)[O-])s3)sc2-c2ccc(F)cc2)cc1 [Compound 6-18] .
Resp: 2170

---

Reported GI50 by item:
- System: Hep3B hepatocellular carcinoma cell line
- Assay: MTS cell viability assay (NCI-60 methodology), GI50/LC50, Hep3B
- Type: cell-based
- Condition: Homo sapiens, 48 h, Hep3B cells, 2 days incubation with compound
Respond numerically; units are nM and should not be typed.

Below, 6 compounds whose answers are already recorded.
• COc1ccc(-c2sc(NC(=O)c3ccc([N+](=O)[O-])s3)nc2-c2ccc(C(C)(C)C)cc2)cc1 [Compound 6-54] = 610
• Cc1ccc(-c2nc(NC(=O)Cc3ccc4nc(N)sc4c3)sc2-c2ccc(Br)cc2)cc1 [Compound 3-3] = 1140
• CCCOc1ccc(-c2nc(NC(=O)c3ccc([N+](=O)[O-])o3)sc2Oc2ccccc2)cc1 [Compound 5-48] = 5220
• CCCOc1ccc(-c2nc(NC(=O)c3ccc([N+](=O)[O-])s3)sc2Oc2ccc(C#N)cc2)cc1 [Compound 5-39] = 890
• CCOc1ccc(-c2nc(NC(=O)Cc3ccc4nc(N)sc4c3)sc2-c2ccc(F)cc2)cc1 [Compound 3-9] = 2270
• CC(C)(C)c1ccc(-c2nc(NC(=O)c3ccc([N+](=O)[O-])s3)sc2Oc2ccccc2)cc1 [Compound 5-14] = 340

Req: Recall and state the measured GI50 for CCCCOc1ccccc1-c1nnc(NC(=O)Cc2ccc3nc(N)sc3c2)s1 [Compound 1-20] .
Resp: 210

---

What follows is a collection of GI50 values obtained with SW480 colon adenocarcinoma cell line.
Respond numerically; units are µM and should not be typed.

Below, 3 molecules whose answers are already recorded.
- CCCCc1ccc(-c2nc(NC(=O)c3ccc([N+](=O)[O-])s3)sc2Oc2ccccc2F)cc1: 1.46
- CCOc1ccc(-c2nc(NC(=O)c3ccc([N+](=O)[O-])s3)sc2Oc2cccc(C(F)(F)F)c2)cc1: 6.42
- O=C(Nc1nc(-c2ccc(OC(F)(F)F)cc2)c(Oc2ccccc2F)s1)c1ccc([N+](=O)[O-])s1: 1.66

Req: GET GI50 | system: SW480 colon adenocarcinoma cell line | item: CC(C)(C)c1ccc(-c2nc(NC(=O)c3ccc([N+](=O)[O-])s3)sc2Oc2ccccc2)cc1
Resp: 1.51

Req: GET GI50 | system: SW480 colon adenocarcinoma cell line | item: CCCOc1ccc(-c2nc(NC(=O)c3ccc([N+](=O)[O-])o3)sc2Oc2ccccc2)cc1
Resp: 1.81

Req: GET GI50 | system: SW480 colon adenocarcinoma cell line | item: O=C(Nc1nc(-c2ccc(Br)cc2)c(Oc2ccccc2C(F)(F)F)s1)c1ccc([N+](=O)[O-])s1
Resp: 1.51

Req: GET GI50 | system: SW480 colon adenocarcinoma cell line | item: CC(C)(C)c1ccc(-c2nc(NC(=O)c3ccc([N+](=O)[O-])s3)sc2-c2cc(F)cc(F)c2)cc1
Resp: 0.74

---

What follows is a collection of GI50 values obtained with SW480 colon adenocarcinoma cell line.
Respond numerically; units are nM and should not be typed.

Below, 5 molecules whose answers are already recorded.
- CCOCOc1cc(OCC)ccc1-c1nnc(NC(=O)Cc2ccc3nc(N)sc3c2)s1: 210
- CCCOc1ccc(-c2nc(NC(=O)c3ccc([N+](=O)[O-])s3)sc2Oc2cccc(F)c2)cc1: 1140
- CCOc1ccc(-c2nc(NC(=O)Cc3ccc4nc(N)sc4c3)sc2-c2ccc(F)cc2)cc1: 8950
- CCC(C)(C)c1ccc(-c2nc(NC(=O)c3ccc([N+](=O)[O-])s3)sc2Oc2ccc(F)cc2)cc1: 880
- CCCOc1ccc(-c2nc(NC(=O)c3ccc([N+](=O)[O-])s3)sc2Oc2ccc(Br)cc2)cc1: 1230

Req: Recall and state the measured GI50 for CCC(C)(C)c1ccc(Oc2sc(NC(=O)c3ccc([N+](=O)[O-])s3)nc2-c2ccc(F)cc2)cc1 .
Resp: 760

Req: Recall and state the measured GI50 for CCCOc1ccc(-c2nc(NC(=O)c3ccc([N+](=O)[O-])s3)sc2Oc2ccc(C(F)(F)F)cc2Cl)cc1 .
Resp: 770
